# testTarget: P2X purinoceptor 7 (Homo sapiens, UniProt Q99572)
# Sequence (Q99572 whole entry): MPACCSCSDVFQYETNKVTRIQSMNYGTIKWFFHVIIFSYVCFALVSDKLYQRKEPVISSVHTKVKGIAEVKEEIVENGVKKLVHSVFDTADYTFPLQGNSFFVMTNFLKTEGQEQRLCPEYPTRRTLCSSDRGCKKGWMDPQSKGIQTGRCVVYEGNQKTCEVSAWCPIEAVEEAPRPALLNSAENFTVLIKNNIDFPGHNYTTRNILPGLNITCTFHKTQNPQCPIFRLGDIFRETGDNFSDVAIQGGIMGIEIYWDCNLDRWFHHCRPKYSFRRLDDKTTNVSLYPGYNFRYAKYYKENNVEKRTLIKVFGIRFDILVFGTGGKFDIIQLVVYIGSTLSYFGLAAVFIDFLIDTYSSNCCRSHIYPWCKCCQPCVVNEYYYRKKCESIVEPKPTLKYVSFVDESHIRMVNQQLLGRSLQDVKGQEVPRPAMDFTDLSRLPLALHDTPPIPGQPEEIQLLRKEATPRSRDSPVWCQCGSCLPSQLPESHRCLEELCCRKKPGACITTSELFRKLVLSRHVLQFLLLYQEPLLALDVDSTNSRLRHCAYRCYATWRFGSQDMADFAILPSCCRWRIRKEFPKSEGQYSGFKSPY
# testSummary: Antagonist activity at human P2X7 receptor expressed in human 1321N1 cells assessed as inhibition of ATP-induced cytosolic calcium influx preincubated for 30 mins followed by ATP addition by Fluo-4 AM dye-based fluorescence assay
Measured IC50, listed per entry.
experimentalReadout: IC50 (µM)

{"smilesText": "CC(C)N(C(=O)N1c2ccccc2C=Cc2ccccc21)C(C)C", "testTarget": "P2X purinoceptor 7 (Homo sapiens, UniProt Q99572)", "experimentalReadout": "IC50", "inequalityOperator": "=", "assayResult": 95.2}
{"smilesText": "O=C(N1CCCCC1)N1c2ccccc2C=Cc2ccccc21", "testTarget": "P2X purinoceptor 7 (Homo sapiens, UniProt Q99572)", "experimentalReadout": "IC50", "inequalityOperator": ">", "assayResult": 100}
{"smilesText": "O=C(NC1CCCCC1)N1c2ccccc2C=Cc2ccccc21", "testTarget": "P2X purinoceptor 7 (Homo sapiens, UniProt Q99572)", "experimentalReadout": "IC50", "inequalityOperator": "=", "assayResult": 40.8}
{"smilesText": "O=C(N1CCCC1)N1c2ccccc2C=Cc2ccccc21", "testTarget": "P2X purinoceptor 7 (Homo sapiens, UniProt Q99572)", "experimentalReadout": "IC50", "inequalityOperator": ">", "assayResult": 100}
{"smilesText": "CCCN(CCC)C(=O)N1c2ccccc2C=Cc2ccccc21", "testTarget": "P2X purinoceptor 7 (Homo sapiens, UniProt Q99572)", "experimentalReadout": "IC50", "inequalityOperator": ">", "assayResult": 100}
{"smilesText": "CCN(CC)C(=O)N1c2ccccc2C=Cc2ccccc21", "testTarget": "P2X purinoceptor 7 (Homo sapiens, UniProt Q99572)", "experimentalReadout": "IC50", "inequalityOperator": "=", "assayResult": 69.8}
